Origin of the recorded values: the Deep4Chem optical property database

# TEST METHOD NOTES: photoluminescence quantum yield (fraction); solvent given as SMILES
# CONDITION DETAILS: in ClCCl
# if measured photoluminescence quantum yield < 0.1: 1.0  # else: 0.0

Worked examples, 5 molecules total:
>>> label_class("O=C1/C(=C/C=C/c2cc3c4c(c2)CCCN4CCC3)CC/C1=C\\C=C\\c1cc2c3c(c1)CCCN3CCC2")
0.0
>>> label_class("CCCCCCc1ccc(-n2c3[n+](c4c5ccccc5c5ccccc5c42)[B-](C)(C)c2cc(-n4c5ccccc5c5ccccc54)ccc2-3)cc1")
0.0
>>> label_class("CC(C)(C)c1ccc2ccc3cc(-c4ccc5c(-c6ccc7c(ccc8ccc(C(C)(C)C)cc87)c6)cc6c7cc(-c8ccc9c(ccc%10ccc(C(C)(C)C)cc%109)c8)ccc7c(-c7ccc8c(ccc9ccc(C(C)(C)C)cc98)c7)cc6c5c4)ccc3c2c1")
0.0
>>> label_class("COC(=O)c1ccc(C(=O)NC(C)(C)C)c2c1ccc1c3ccccc3c3ccccc3c12")
1.0
>>> label_class("CCCCN1/C(=C\\c2c(-c3ccc(N(C)C)cc3)c(=O)c2=O)C=Cc2ccccc21")
1.0

Here's the next entry for you.
// query Determine if `CCCCN(CCCC)c1ccc(C#Cc2cc(C#Cc3ccc(N(CCCC)CCCC)cc3)c(C#Cc3ccc(C#N)cc3)cc2C#Cc2ccc(C#N)cc2)cc1` shows photoluminescence quantum yield strictly lower than 0.1.
// result 0.0

* * *

# TEST METHOD NOTES: photoluminescence quantum yield (fraction); solvent given as SMILES
# CONDITION DETAILS: in CC#N
Binary call on photoluminescence quantum yield with cut-off 0.05: strictly below means TRUE, and equality or higher means FALSE.

>>> label_class("Cc1ccc([C@@H]2C[C@](O)(c3ccccn3)C[C@](O)(c3ccccn3)[C@H]2C(=O)c2ccc(N(c3ccccc3)c3ccccc3)cc2)cc1")
"TRUE"
>>> label_class("c1cc2oc3cccc4oc5cccc6oc(c1)c2[c+](c34)c65")
"FALSE"
>>> label_class("F[B-]1(F)n2c(Nc3cccc4cccnc34)ccc2C(c2ccccc2)=C2C=CC(Cl)=[N+]21")
"TRUE"
>>> label_class("CN(C)c1ccc2nc(-c3ccc(C(=O)OC[C@H](NC(=O)OC(C)(C)C)C(=O)OCc4ccccc4)cc3)sc2c1")
"FALSE"
>>> label_class("CN(C)c1ccc(C2=Cc3ccc4ccccc4[n+]3[B-](F)(F)O2)cc1")
"FALSE"

// query Item `CCN(CC)c1ccc(-n2cccc2)cc1` : photoluminescence quantum yield beneath 0.05, strictly?
// result FALSE

// query Likewise for N#Cc1cccc(-c2pc3ccccc3s2)c1 (centres undefined) ?
// result TRUE

// query What about this compound? `C=CCNc1ccc2ccc3oc4cc(=[N+]5CCCC5)ccc-4nc3c2c1`
// result FALSE

// query Entry to check: `F[B-]1(F)n2c(-c3ccccc3)cc(-c3ccccc3)c2N=C2C(c3ccccc3)=CC(c3ccccc3)=[N+]21`
// result FALSE

// query And for `Clc1nc(Nc2ccccc2)nc(Nc2ccc3c4cccc5cccc(c6cccc2c63)c54)n1` ?
// result FALSE

// query Follow-up entry: COC(=O)[C@]12N=N[C@](C(=O)OC)(C3C4C5C4C5C31)C1C3C4C3C4C12 (some centres undefined)
// result TRUE

// query Moving on to the next compound: `CCC1=C(C)C2=C(c3c(C)cc(C)nc3-c3cccs3)c3c(C)c(CC)c(C)n3[B-](F)(F)[N+]2=C1C`
// result FALSE

// query Follow-up entry: `c1ccc(-c2nn(-c3ccccc3)c3nc4ccc(-n5c6ccccc6c6ccccc65)cc4cc23)cc1`
// result FALSE

// query Item: `COc1ccc2c(c1)C(=O)c1cc(OC)cc(OC)c1-2`
// result TRUE

// query Same read-out for `CN(C)c1ccc(C#Cc2ccc3ccc(=O)oc3c2)cc1` ?
// result TRUE

* * *

# TEST METHOD NOTES: photoluminescence quantum yield (fraction); solvent given as SMILES
# CONDITION DETAILS: in CC1CCCO1
Sorting guide: entries reporting photoluminescence quantum yield beneath 0.2 go in the t pile, the rest go in the f pile.

The following molecules have reported results that may help.
>>> label_class("O=c1cc2c(-c3c(O)c4cccc5ccc6oc(=O)cc3c6c54)c(O)c3cccc4ccc(o1)c2c43")
"t"
>>> label_class("CN(C)c1ccc(C#Cc2ccc(C=O)cc2)cc1")
"f"
>>> label_class("CC1=CC(/C=C/c2ccc(C)cc2)=[N+]2C1=C(c1ccccc1)c1c(C)cc(/C=C/c3ccc(C)cc3)n1[B-]2(F)F")
"f"
>>> label_class("COc1c(-c2c(OC)c3cccc4ccc5oc(=O)cc2c5c43)c2cc(=O)oc3ccc4cccc1c4c32")
"f"

Then there is this molecule:
// query Find out if reported photoluminescence quantum yield for `COC(=O)c1ccc(C#Cc2ccc(N(C)C)cc2)cc1` is less than 0.2
// result f

* * *

The compounds listed here are annotated with their photoluminescence quantum yield.
# TEST METHOD NOTES: photoluminescence quantum yield (fraction); solvent given as SMILES
# CONDITION DETAILS: in CCO
No unit in the answer, only the number.

>>> endpoint_value("CCOC(=O)c1ccc(NC(=O)COc2cc3c4c([nH]c3c(C)c2C)C(=O)CCC4)cc1")
0.097
>>> endpoint_value("CCOC(=O)c1cc(C(=O)OCC)c2cccc(OCc3ccccc3)c2n1")
0.2
>>> endpoint_value("CN1C(C(=O)Nc2ccccn2)=C([O-])c2sccc2S1(=O)=O")
0.00451
>>> endpoint_value("CCCCCCCN1C(=CC2=C([O-])C(=CC3=[N+](CCCCCCC)c4ccccc4C3(C)C)C2=C(C#N)C#N)C(C)(C)c2ccccc21")
0.13
>>> endpoint_value("COc1ccc(C(=O)OCc2ccc3c4cccc5cccc(c6cccc2c63)c54)cc1")
0.93
>>> endpoint_value("CCOC(=O)c1cc(C(=O)NCc2ccccc2)c2ccc(N(C)C)cc2n1")
0.06
>>> endpoint_value("CC/[NH+]=c1\\cc2oc3cc(NCCC(=O)O)c4ccccc4c3nc-2cc1C")
0.44
>>> endpoint_value("CCOc1ccc2c(-c3nc(-c4cccc(Br)c4)no3)cc(=O)oc2c1")
0.52

Would you kindly look at the next entry?
// query If you can, please state the reported photoluminescence quantum yield value of `CC(C)(C)OC(=O)NCCCC(=O)OCc1ccc2c3cccc4cccc(c5cccc1c52)c43` .
// result 0.87

* * *

# TEST METHOD NOTES: photoluminescence quantum yield (fraction); solvent given as SMILES
# CONDITION DETAILS: in CCCCOCCCC
QUANTITY KIND: photoluminescence quantum yield
Number only, please.

In the examples that follow, each entry is paired with its recorded photoluminescence quantum yield.
>>> endpoint_value("COc1ccc(/C=C/c2ccccc2)cc1OC")
0.05
>>> endpoint_value("COc1nc(Cl)nc(Nc2ccc3c4c(cccc24)C(=O)c2ccccc2-3)n1")
0.05
>>> endpoint_value("CC(=O)Nc1cc2ccc3cccc4ccc(c1)c2c34")
0.1
>>> endpoint_value("c1ccc(Nc2nc(Nc3ccccc3)nc(Nc3ccc4c5cccc6cccc(c7cccc3c74)c65)n2)cc1")
0.5

// query Recorded photoluminescence quantum yield for `Clc1nc(Nc2ccccc2)nc(Nc2ccc3c4cccc5cccc(c6cccc2c63)c54)n1` , please?
// result 0.49

// query Please answer likewise for `CN(C)c1ccc(/C=C/C=C/c2ccc(C#N)cc2)cc1`
// result 0.068

* * *

# TEST METHOD NOTES: photoluminescence quantum yield (fraction); solvent given as SMILES
# CONDITION DETAILS: in CC(C)O
QUANTITY KIND: photoluminescence quantum yield
Reply: number alone, nothing else.

// query Given the compound `Nc1ccc2c(c1)C(=O)c1ccc(N)cc1C2=O` , what is its reported photoluminescence quantum yield?
// result 0.008

// query Now the compound NS(=O)(=O)c1ccc(N2N=C(c3ccc(O)cc3)CC2c2ccc([N+](=O)[O-])cc2)cc1 (stereo unspecified)
// result 0.02

* * *

# TEST METHOD NOTES: photoluminescence quantum yield (fraction); solvent given as SMILES
# CONDITION DETAILS: in C1CCOC1
QUANTITY KIND: photoluminescence quantum yield
Note: the reply should be a number with no unit written.

Take a look at these entries with their results.
>>> endpoint_value("CCn1c2ccccc2c2cc(-c3cc(-c4ccc5c(c4)c4ccccc4n5CC)ncn3)ccc21")
0.44
>>> endpoint_value("CN(C)c1ccc(-c2nc(-c3ccc(-n4c5ccccc5c5ccccc54)cc3)cc(-c3ccc(-n4c5ccccc5c5ccccc54)cc3)n2)cc1")
0.035

For the next question, use this compound.
// query Given the compound `CC1=[N+]2C(=c3c4c5ccccc5cc5cccc(c6cc(C)n(c36)[B-]2(F)F)c54)C=C1` , what is its reported photoluminescence quantum yield?
// result 0.48
